Target: T1, full length human LILRB2 stably expressed on HEK293 cells (human, UniProt Q8N423 22-597)
T1 construct: whole, on cells; also called HEK293_LILRB2
T1 sequence (Q8N423 22-597): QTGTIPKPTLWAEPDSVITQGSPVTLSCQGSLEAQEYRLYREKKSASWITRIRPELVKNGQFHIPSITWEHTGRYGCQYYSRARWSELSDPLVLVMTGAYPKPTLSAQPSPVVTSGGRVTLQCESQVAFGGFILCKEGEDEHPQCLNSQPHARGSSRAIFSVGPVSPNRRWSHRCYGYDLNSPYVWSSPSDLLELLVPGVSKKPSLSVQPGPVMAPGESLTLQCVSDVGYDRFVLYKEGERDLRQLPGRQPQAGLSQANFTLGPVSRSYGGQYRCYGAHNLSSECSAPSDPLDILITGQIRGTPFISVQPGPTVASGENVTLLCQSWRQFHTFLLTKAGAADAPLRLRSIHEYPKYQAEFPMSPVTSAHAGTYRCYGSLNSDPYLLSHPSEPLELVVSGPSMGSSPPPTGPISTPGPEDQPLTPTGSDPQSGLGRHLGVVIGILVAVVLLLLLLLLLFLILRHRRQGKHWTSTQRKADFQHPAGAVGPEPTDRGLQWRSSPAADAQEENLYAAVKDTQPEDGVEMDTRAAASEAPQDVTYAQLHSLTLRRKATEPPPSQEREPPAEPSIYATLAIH
Test: competition flow cytometry, inhibition of HLA-G-His binding to HEK293 cells expressing LILRB2
endpoint: IC50 (µg/mL)
Supply the numeric figure in µg/mL, leaving out any unit text.

Look up IC50 for this binder: B2-17 (antibody, V domains shown, also called B2-17_HC; B2-17_LC) VH: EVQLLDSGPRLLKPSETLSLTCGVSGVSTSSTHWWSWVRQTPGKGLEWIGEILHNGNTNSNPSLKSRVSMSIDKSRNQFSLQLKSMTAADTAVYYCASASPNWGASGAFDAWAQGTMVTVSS VL: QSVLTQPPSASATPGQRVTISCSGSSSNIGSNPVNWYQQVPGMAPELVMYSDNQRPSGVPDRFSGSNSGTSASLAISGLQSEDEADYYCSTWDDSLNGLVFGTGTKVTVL
0.209

Look up IC50 for this binder: B2-7 (antibody, V domains shown, also called B2-7_HC; B2-7_LC) VH: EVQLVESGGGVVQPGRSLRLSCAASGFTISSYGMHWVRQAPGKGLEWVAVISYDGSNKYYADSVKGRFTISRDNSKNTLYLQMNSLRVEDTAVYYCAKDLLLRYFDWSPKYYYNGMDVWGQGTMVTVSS VL: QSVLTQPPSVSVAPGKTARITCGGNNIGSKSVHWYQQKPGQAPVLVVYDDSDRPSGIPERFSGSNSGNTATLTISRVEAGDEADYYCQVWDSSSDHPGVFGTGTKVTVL
0.507

Look up IC50 for this binder: B2-15 (antibody, V domains shown, also called B-15; B2-15_HC) VH: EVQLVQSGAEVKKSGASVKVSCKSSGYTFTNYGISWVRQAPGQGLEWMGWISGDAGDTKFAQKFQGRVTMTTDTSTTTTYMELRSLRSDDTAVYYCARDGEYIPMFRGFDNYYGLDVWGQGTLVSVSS VL: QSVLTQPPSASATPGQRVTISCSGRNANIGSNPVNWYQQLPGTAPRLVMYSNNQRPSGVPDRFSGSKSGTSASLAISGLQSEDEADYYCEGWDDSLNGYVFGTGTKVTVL
0.16

// switching to the query binder
Look up IC50 for this binder: B2-16 (antibody, V domains shown, also called B2-16_HC; B2-16_LC) VH: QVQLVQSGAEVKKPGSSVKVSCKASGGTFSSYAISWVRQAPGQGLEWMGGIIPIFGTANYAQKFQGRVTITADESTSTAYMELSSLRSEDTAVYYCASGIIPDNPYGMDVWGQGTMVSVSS VL: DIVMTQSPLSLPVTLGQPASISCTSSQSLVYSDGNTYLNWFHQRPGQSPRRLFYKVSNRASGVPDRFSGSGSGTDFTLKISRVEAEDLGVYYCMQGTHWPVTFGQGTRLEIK
0.915

Taken from patent US20230068663A1.
